- System: U-2932
- test: growth inhibition by drug plus 177Lu-lilotomab satetraxetan (1 - RLU/untreated control) (fraction); higher = stronger inhibition
- cond: 1000 nM; time (day): 5; 177Lu-lilotomab satetraxetan 1 ug/ml
So I've got a bunch of compounds here, and I need their growth inhibition by drug plus 177Lu-lilotomab satetraxetan values.
Hey, just send me the number, nothing else.

Query string: State the recorded growth inhibition by drug plus 177Lu-lilotomab satetraxetan for this entry: O=C1C(Cl)=C(NCCN2CCOCC2)C(=O)c2ncccc21
Result string: 0.241

Query string: State the recorded growth inhibition by drug plus 177Lu-lilotomab satetraxetan for this entry: COc1nc(-c2ccc3c(c2)OCO3)n(-c2ccc(NC(=O)CSc3ccccc3)cc2)n1 [SecinH3]
Result string: -0.0724

Query string: State the recorded growth inhibition by drug plus 177Lu-lilotomab satetraxetan for this entry: c1ccc2c(CCNc3ccc(Nc4ccncc4)cc3)c[nH]c2c1
Result string: 0.21

Query string: State the recorded growth inhibition by drug plus 177Lu-lilotomab satetraxetan for this entry: O=C1c2ccccc2C(=O)c2c(NCCc3ccc(O)cc3)ccc(NCCc3ccc(O)cc3)c21
Result string: -0.0582

Query string: State the recorded growth inhibition by drug plus 177Lu-lilotomab satetraxetan for this entry: CS(=O)(=O)N1CCN(Cc2cc3nc(-c4cccc5[nH]ncc45)nc(N4CCOCC4)c3s2)CC1
Result string: 0.897
